B1: Twister Ribozyme (parent)
chain: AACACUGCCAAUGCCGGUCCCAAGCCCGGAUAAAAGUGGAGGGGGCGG

Variants of: B1
Assay procedure: self-cleavage, relative activity (ratio to wild type); higher = more cleavage; co-transcriptional
Would you mind sorting the entries by self-cleavage according to these classes? low band: < 0.1; middle band: ≥ 0.1 and < 0.4; high band: ≥ 0.4

Mutation id	Group label
C26A U31G	high band
C27G A35G	middle band
A35C G39A	middle band
G36C G42U	middle band
U18C C20U	middle band
A33U G36U	middle band
C27A A33G	middle band
C15A G28A	high band
G13U U18G	low band
C14A C46U	high band
G36U G48A	high band
G17C C19A	low band
G38C G42A	middle band
U12C G43A	middle band
C15G C46U	low band
A4U U6G	low band
C19U U37G	high band
U6G G47U	middle band
A10U G16C	high band
C19G U31A	middle band
A10C A35G	high band
C27G A33U	low band
G29A U31A	high band
G7A G44C	middle band
C26U G42U	middle band
C27U G42A	middle band
U12C G28A	high band
U18G G45U	low band
G13C A40C	low band
C8G C9G	middle band
U12C G47C	high band
C8A A32C	high band
C27G G42U	low band
A11U G43A	middle band
C25G A30G	high band
C8U A10U	high band
A2G A40G	low band
U12C C46U	high band
U12C G38A	high band
U6G U18C	middle band
U31A G41C	middle band
C3U A32G	middle band
U18C G24A	low band
